Target: T1, pm3 (Y17 sulfated; Y15 and Y16 not sulfated)
T1 construct: also called sulfated CCR8 N-terminal peptide pm3
T1 sequence (peptide, as listed by the source): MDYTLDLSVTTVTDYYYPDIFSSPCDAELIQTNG
Assay: ELISA on coated peptide [cont.]
reported_metric: binding result

1. anti-CCR8 mAb 1-19 (antibody, human IgG1, kappa, V domains shown, Humanized mAb, human IgG1 / kappa) VH: EVQLVESGGGLVQPGRSLRLSCTASGFTFNTYAMNWVRQAPGKGLEWVARIRSKSNNYATYYAASVKGRFTISRDDSKSIAYLQMNSLKTEDTAVYYCVRGREAYYRYDGGYYAMDVWGQGTTVTVSS VL: DIVMTQAAPSLPVTPGESASISCRSSKSLLHSNGNTYLYWFLQKPGQSPQLLIYRMSNLASGVPDRFSGSGSGTAFTLKISRVEAEDVGVYYCMQHLEYPFTFGSGTKLEIKR = binds
2. anti-CCR8 mAb 1-10 (antibody, V domains shown, Murine hybridoma mAb) VH: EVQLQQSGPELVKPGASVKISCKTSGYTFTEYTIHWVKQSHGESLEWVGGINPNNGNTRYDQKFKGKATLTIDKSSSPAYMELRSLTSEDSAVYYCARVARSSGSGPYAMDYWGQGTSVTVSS VL: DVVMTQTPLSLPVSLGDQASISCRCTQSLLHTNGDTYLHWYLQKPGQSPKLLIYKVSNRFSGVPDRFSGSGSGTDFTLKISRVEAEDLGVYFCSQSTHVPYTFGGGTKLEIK = binds
3. anti-CCR8 mAb 1-24 (antibody, human IgG1, kappa, V domains shown, Humanized mAb, human IgG1 / kappa) VH: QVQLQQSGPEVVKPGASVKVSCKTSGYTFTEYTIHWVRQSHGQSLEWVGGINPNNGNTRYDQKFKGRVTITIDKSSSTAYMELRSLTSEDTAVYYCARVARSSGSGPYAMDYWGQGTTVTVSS VL: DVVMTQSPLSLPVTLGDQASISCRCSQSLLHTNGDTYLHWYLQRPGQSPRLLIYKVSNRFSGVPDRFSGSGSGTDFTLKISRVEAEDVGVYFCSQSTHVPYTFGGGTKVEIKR = binds

// data source = patent US20260132208A1
